- Test system: chickweed
- PROCEDURE TEXT: Test C postemergence herbicide test
- Format: in vivo, Stellaria media
- RUN PARAMETERS: Postemergence, 500 g ai/ha; scale 0 to 100
Reported values of Chickweed plant response rating for individual entries
// keep it numeric: no unit symbol after the value

                                   molecule  assay_target                    quantity_name  number
0  C=CCNC(=O)c1cccc(NC(=O)c2cc(C(C)(C)C)nn2C)n1     chickweed  Chickweed plant response rating      80
1  C#CCNC(=O)c1cccc(NC(=O)c2cc(C(C)(C)C)nn2CC)n1     chickweed  Chickweed plant response rating     100
2  C=Cn1nc(C(C)(C)C)cc1C(=O)Nc1cccc(C(=O)N(CC)CC)c1     chickweed  Chickweed plant response rating     100

Next compound, please.
The compound identified as CCc1nc(C(C)(C)C)sc1C(=O)Nc1cccc(C(=O)NCC2CC2)c1 registered its Chickweed plant response rating at 100
